assay_info: Ratio of IC50 for human THP1 cells to IC50 for axenic amastigote state of Leishmania infantum
recorded_metric: Ratio IC50
Hey, just send me the number, nothing else.

Asked: State the recorded Ratio IC50 for this entry: O=C(NC(=[Se])Nc1ccc([Se][Se]c2ccc(NC(=[Se])NC(=O)c3cc4ccccc4nc3-c3ccccc3)cc2)cc1)c1cc2ccccc2nc1-c1ccccc1
Given back: 1.34

Asked: Quick one: O=C(NC(=[Se])Nc1ccc([Se][Se]c2ccc(NC(=[Se])NC(=O)c3ccc4c(c3)OCO4)cc2)cc1)c1ccc2c(c1)OCO2
Given back: 1.35

---

Please go through the items and note down their Ratio IC50.
assay_info: Ratio of IC50 for human THP1 cells to IC50 for axenic amastigote state of Leishmania infantum
Hey, just send me the number, nothing else.

Asked: State the recorded Ratio IC50 for this entry: N#C[Se]c1ccc(NC(=O)C2C3C=CC(O3)C2C(=O)O)cc1 (stereo not given)
Given back: 7.76

Asked: Quick one: O=C(NC(=[Se])Nc1ccc([Se][Se]c2ccc(NC(=[Se])NC(=O)c3ccno3)cc2)cc1)c1ccno1
Given back: 3.1

Asked: Quick one: O=C1c2ccccc2C(=O)N1c1ccc([Se][Se]c2ccc(N3C(=O)c4ccccc4C3=O)cc2)cc1
Given back: 11.08

Asked: Quick one: CCCCCCCCCCCCCCCCOP(=O)([O-])OCC[N+](C)(C)C [MILTEFOSINE]
Given back: 6.51

Asked: Quick one: CCCCCCCCCCCCCCCCCCOCC(COP(=O)([O-])OCC[N+](C)(C)C)OC (stereo not given) [EDELFOSINE]
Given back: 6.01

Asked: Quick one: O=C1COCC(=O)N1c1ccc([Se][Se]c2ccc(N3C(=O)COCC3=O)cc2)cc1
Given back: 0.82
